Data origin, for the record: ChEMBL document CHEMBL5046252

assay: Chemostability of the compound in phosphate buffer assessed as residual parent compound concentration at pH 7.4 measured after 24 hrs by LC-MS analysis; format: physicochemical; conditions: read-out: Activity
QUANTITY: remaining at 24 h (%)
Use % as the unit, but write only the number.

Lookup: # lookup: remaining at 24 h of N=C(N)NCCC[C@@H]1NC(=O)[C@H](CCCCNC(=O)OCCSSCCOC(=O)OC[C@H]2O[C@@H](n3ccc(N)nc3=O)C(F)(F)[C@@H]2O)NC(=O)[C@@H](Cc2ccc(O)cc2)NC(=O)[C@H](CC(=O)O)NC(=O)CNC1=O
Found: 85

---

experiment: Drug uptake in C57BL/6 naive mouse blood at 10 mg/kg, ip measured after 6 hrs by LC-MS/MS analysis; assay type: ADME, organism-based; details: C57BL/6, mouse, whole blood, read-out: Drug uptake
QUANTITY: concentration at 6 h (nM)
I only need the number, in nM, no unit after it.

Lookup: Query: concentration at 6 h; subject: N=C(N)NCCC[C@@H]1NC(=O)[C@H](CCCCNC(=O)OC[C@H]2O[C@@H](n3ccc(N)nc3=O)C(F)(F)[C@@H]2O)NC(=O)[C@@H](Cc2ccc(O)cc2)NC(=O)[C@H](CC(=O)O)NC(=O)CNC1=O
Found: 168

---

assay: Drug uptake in C57BL/6 naive mouse blood at 10 mg/kg, ip measured after 1 hr by LC-MS/MS analysis; format: ADME, organism-based; conditions: C57BL/6, mouse, whole blood, read-out: Drug uptake
QUANTITY: concentration at 1 h (µM)
Respond numerically; units are µM and should not be typed.

Lookup: Given the compound N=C(N)NCCC[C@@H]1NC(=O)[C@H](CCCCNC(=O)OC[C@H]2O[C@@H](n3ccc(N)nc3=O)C(F)(F)[C@@H]2O)NC(=O)[C@@H](Cc2ccc(O)cc2)NC(=O)[C@H](CC(=O)O)NC(=O)CNC1=O , what is its reported concentration at 1 h?
Found: 3.32

---

assay: Drug uptake in C57BL/6 naive mouse blood at 10 mg/kg, ip measured after 24 hrs by LC-MS/MS analysis; format: ADME, organism-based; settings: C57BL/6, mouse, whole blood, read-out: Drug uptake
QUANTITY: concentration at 24 h (nM)
Reply with just the number (in nM).

Lookup: # concentration at 24 h lookup, item N=C(N)NCCC[C@@H]1NC(=O)[C@H](CCCCNC(=O)OC[C@H]2O[C@@H](n3ccc(N)nc3=O)C(F)(F)[C@@H]2O)NC(=O)[C@@H](Cc2ccc(O)cc2)NC(=O)[C@H](CC(=O)O)NC(=O)CNC1=O
Found: 14

---

experiment: Drug uptake in C57BL/6 naive mouse blood at 10 mg/kg, ip measured after 0.25 hrs by LC-MS/MS analysis; type: ADME, organism-based; settings: C57BL/6, mouse, whole blood, read-out: Drug uptake
QUANTITY: concentration at 0.25 h

Lookup: GET /values?readout=concentration at 0.25 h&item= N=C(N)NCCC[C@@H]1NC(=O)[C@H](CCCCNC(=O)OC[C@H]2O[C@@H](n3ccc(N)nc3=O)C(F)(F)[C@@H]2O)NC(=O)[C@@H](Cc2ccc(O)cc2)NC(=O)[C@H](CC(=O)O)NC(=O)CNC1=O
Found: 6.66 µM

---

test: Drug uptake in C57BL/6 naive mouse blood at 10 mg/kg, ip measured after 4 hrs by LC-MS/MS analysis; assay type: ADME, organism-based; details: C57BL/6, mouse, whole blood, read-out: Drug uptake
QUANTITY: concentration at 4 h (nM)
The reply should be a number in nM, with the unit left off.

Lookup: Item under review: N=C(N)NCCC[C@@H]1NC(=O)[C@H](CCCCNC(=O)OC[C@H]2O[C@@H](n3ccc(N)nc3=O)C(F)(F)[C@@H]2O)NC(=O)[C@@H](Cc2ccc(O)cc2)NC(=O)[C@H](CC(=O)O)NC(=O)CNC1=O . Reported concentration at 4 h?
Found: 38

---

assay: Drug uptake in C57BL/6 naive mouse blood at 10 mg/kg, ip measured after 8 hrs by LC-MS/MS analysis; format: ADME, organism-based; conditions: C57BL/6, mouse, whole blood, read-out: Drug uptake
QUANTITY: concentration at 8 h (nM)
Express your answer in nM, writing the number without its unit.

Lookup: Query: concentration at 8 h; subject: N=C(N)NCCC[C@@H]1NC(=O)[C@H](CCCCNC(=O)OC[C@H]2O[C@@H](n3ccc(N)nc3=O)C(F)(F)[C@@H]2O)NC(=O)[C@@H](Cc2ccc(O)cc2)NC(=O)[C@H](CC(=O)O)NC(=O)CNC1=O
Found: 11

---

test: Drug uptake in C57BL/6 naive mouse blood at 10 mg/kg, ip measured after 0.5 hrs by LC-MS/MS analysis; type: ADME, organism-based; conditions: C57BL/6, mouse, whole blood, read-out: Drug uptake
QUANTITY: concentration at 0.5 h (µM)
Write down the numeric answer in µM and omit the unit.

Lookup: // returns reported concentration at 0.5 h for input N=C(N)NCCC[C@@H]1NC(=O)[C@H](CCCCNC(=O)OC[C@H]2O[C@@H](n3ccc(N)nc3=O)C(F)(F)[C@@H]2O)NC(=O)[C@@H](Cc2ccc(O)cc2)NC(=O)[C@H](CC(=O)O)NC(=O)CNC1=O
Found: 8.47
